test: Metabolic stability in human liver microsomes assessed as parent compound remaining at 2 uM incubated for 15 mins in presence of NADPH by RF-MS analysis; type: ADME, Microsome; conditions: read-out: Stability
MEASURED_QUANTITY: remaining at 0.25 h, 2 µM (%)
Report the value in % with no unit label.

Some compounds with recorded remaining at 0.25 h, 2 µM:
{"SMILES_TEXT": "CC(=O)O[C@H]1CC[C@]2(C)[C@H]3CC[C@@H]4[C@H]5[C@H](c6cc7c(c(-c8ccccc8)c6)C(=O)N(c6nccs6)C7=O)CC[C@]5(C(=O)O)CC[C@@]4(C)[C@]3(C)CC[C@H]2C1(C)C", "ASSAY_RESULT": 103}
{"SMILES_TEXT": "CC1(C)[C@@H](O)CC[C@]2(C)[C@H]3CC[C@@H]4[C@H]5[C@H](c6cc7c(c(-c8ccccc8)c6)C(=O)N(c6ccc(N)cc6)C7=O)CC[C@]5(C(=O)O)CC[C@@]4(C)[C@]3(C)CC[C@@H]12", "ASSAY_RESULT": 100}
{"SMILES_TEXT": "CC1(C)[C@@H](O)CC[C@]2(C)[C@H]3CC[C@@H]4[C@H]5[C@H](c6cc7c(c(-c8ccccc8)c6)C(=O)N(c6ccccc6)C7=O)CC[C@]5(C(=O)O)CC[C@@]4(C)[C@]3(C)CC[C@@H]12", "ASSAY_RESULT": 92}

# input Tell me measured remaining at 0.25 h, 2 µM for CC(=O)O[C@H]1CC[C@]2(C)[C@H]3CC[C@@H]4[C@H]5[C@H](c6cc7c(c(-c8ccccc8)c6)C(=O)N(c6cc[nH]n6)C7=O)CC[C@]5(C(=O)O)CC[C@@]4(C)[C@]3(C)CC[C@H]2C1(C)C please.
# output 99

---

assay: Stability in human plasma assessed as compound remaining at 2 uM incubated for 120 mins by RF-MS analysis; assay type: ADME, cell-free; details: read-out: Stability
MEASURED_QUANTITY: remaining at 2 h, 2 µM
Could you kindly put the unit after your number?

The following molecules have reported results that may help.
{"SMILES_TEXT": "CC(=O)O[C@H]1CC[C@]2(C)[C@H]3CC[C@@H]4[C@H]5[C@H](c6cc7c(c(-c8ccccc8)c6)C(=O)N(c6cc[nH]n6)C7=O)CC[C@]5(C(=O)O)CC[C@@]4(C)[C@]3(C)CC[C@H]2C1(C)C", "MEASURED_QUANTITY": "remaining at 2 h, 2 µM", "ASSAY_RESULT": "86%"}
{"SMILES_TEXT": "CC1(C)[C@@H](O)CC[C@]2(C)[C@H]3CC[C@@H]4[C@H]5[C@H](c6cc7c(c(-c8ccccc8)c6)C(=O)N(c6ccccc6)C7=O)CC[C@]5(C(=O)O)CC[C@@]4(C)[C@]3(C)CC[C@@H]12", "MEASURED_QUANTITY": "remaining at 2 h, 2 µM", "ASSAY_RESULT": "89%"}
{"SMILES_TEXT": "CC1(C)[C@@H](O)CC[C@]2(C)[C@H]3CC[C@@H]4[C@H]5[C@H](c6cc7c(c(-c8ccccc8)c6)C(=O)N(c6ccc(N)cc6)C7=O)CC[C@]5(C(=O)O)CC[C@@]4(C)[C@]3(C)CC[C@@H]12", "MEASURED_QUANTITY": "remaining at 2 h, 2 µM", "ASSAY_RESULT": "89%"}

Consider the record given below.
# input Quickly give me recorded remaining at 2 h, 2 µM for CC(=O)O[C@H]1CC[C@]2(C)[C@H]3CC[C@@H]4[C@H]5[C@H](c6cc7c(c(-c8ccccc8)c6)C(=O)N(c6nccs6)C7=O)CC[C@]5(C(=O)O)CC[C@@]4(C)[C@]3(C)CC[C@H]2C1(C)C
# output 85%

---

Below, each of the compounds is paired with its reported remaining at 1 h, 2 µM value.
assay: Metabolic stability in human liver microsomes assessed as parent compound remaining at 2 uM incubated for 60 mins in presence of NADPH by RF-MS analysis; type: ADME, Microsome; conditions: read-out: Stability
Give the quantity in %, number only.

{"SMILES_TEXT": "CC(=O)O[C@H]1CC[C@]2(C)[C@H]3CC[C@@H]4[C@H]5[C@H](c6cc7c(c(-c8ccccc8)c6)C(=O)N(c6cc[nH]n6)C7=O)CC[C@]5(C(=O)O)CC[C@@]4(C)[C@]3(C)CC[C@H]2C1(C)C", "remaining at 1 h, 2 µM [%]": 81}
{"SMILES_TEXT": "CC1(C)[C@@H](O)CC[C@]2(C)[C@H]3CC[C@@H]4[C@H]5[C@H](c6cc7c(c(-c8ccccc8)c6)C(=O)N(c6ccc(N)cc6)C7=O)CC[C@]5(C(=O)O)CC[C@@]4(C)[C@]3(C)CC[C@@H]12", "remaining at 1 h, 2 µM [%]": 97}
{"SMILES_TEXT": "CC1(C)[C@@H](O)CC[C@]2(C)[C@H]3CC[C@@H]4[C@H]5[C@H](c6cc7c(c(-c8ccccc8)c6)C(=O)N(c6ccccc6)C7=O)CC[C@]5(C(=O)O)CC[C@@]4(C)[C@]3(C)CC[C@@H]12", "remaining at 1 h, 2 µM [%]": 79}

Consider the record given below.
# input // Input: CC(=O)O[C@H]1CC[C@]2(C)[C@H]3CC[C@@H]4[C@H]5[C@H](c6cc7c(c(-c8ccccc8)c6)C(=O)N(c6nccs6)C7=O)CC[C@]5(C(=O)O)CC[C@@]4(C)[C@]3(C)CC[C@H]2C1(C)C . Output its remaining at 1 h, 2 µM only.
# output 98

---

tested on: CCRF-CEM; experiment: Inhibition of RNA synthesis in human CCRF-CEM cells at 1 times IC50 incubated for 24 hrs by BrU incorporation based flow cytometry; type: functional
MEASURED_QUANTITY: inhibition (INH)
Express the reported value numerically, then name its unit.

Take a look at these entries with their results.
{"SMILES_TEXT": "CC1(C)[C@@H](O)CC[C@]2(C)[C@H]3CC[C@@H]4[C@H]5[C@H](c6cc7c(c(-c8ccccc8)c6)C(=O)N(c6ccccc6)C7=O)CC[C@]5(C(=O)O)CC[C@@]4(C)[C@]3(C)CC[C@@H]12", "MEASURED_QUANTITY": "inhibition (INH)", "ASSAY_RESULT": "28.4%"}
{"SMILES_TEXT": "CC(=O)O[C@H]1CC[C@]2(C)[C@H]3CC[C@@H]4[C@H]5[C@H](c6cc7c(c(-c8ccccc8)c6)C(=O)N(c6nccs6)C7=O)CC[C@]5(C(=O)O)CC[C@@]4(C)[C@]3(C)CC[C@H]2C1(C)C", "MEASURED_QUANTITY": "inhibition (INH)", "ASSAY_RESULT": "28%"}
{"SMILES_TEXT": "CC(=O)O[C@H]1CC[C@]2(C)[C@H]3CC[C@@H]4[C@H]5[C@H](c6cc7c(c(-c8ccccc8)c6)C(=O)N(c6cc[nH]n6)C7=O)CC[C@]5(C(=O)O)CC[C@@]4(C)[C@]3(C)CC[C@H]2C1(C)C", "MEASURED_QUANTITY": "inhibition (INH)", "ASSAY_RESULT": "23.8%"}

# input Dear colleague, please send me the reported inhibition (INH) for CC1(C)[C@@H](O)CC[C@]2(C)[C@H]3CC[C@@H]4[C@H]5[C@H](c6cc7c(c(-c8ccccc8)c6)C(=O)N(c6ccc(N)cc6)C7=O)CC[C@]5(C(=O)O)CC[C@@]4(C)[C@]3(C)CC[C@@H]12 when you can.
# output 24%

---

test system: CCRF-CEM; experiment: Induction of apoptosis in human CCRF-CEM cells assessed as viable cells at 5 times IC50 incubated for 24 hrs by Annexin V-FITC and PI staining based flow cytometric analysis (reference value: 97.4 %); type: functional
MEASURED_QUANTITY: Activity (%)
Answer in %, number only, no unit symbol.

# count of solved cases: 3
{"SMILES_TEXT": "CC1(C)[C@@H](O)CC[C@]2(C)[C@H]3CC[C@@H]4[C@H]5[C@H](c6cc7c(c(-c8ccccc8)c6)C(=O)N(c6ccc(N)cc6)C7=O)CC[C@]5(C(=O)O)CC[C@@]4(C)[C@]3(C)CC[C@@H]12", "SUBJECT_OF_TEST": "CCRF-CEM", "Activity (%)": 87.5}
{"SMILES_TEXT": "CC(=O)O[C@H]1CC[C@]2(C)[C@H]3CC[C@@H]4[C@H]5[C@H](c6cc7c(c(-c8ccccc8)c6)C(=O)N(c6cc[nH]n6)C7=O)CC[C@]5(C(=O)O)CC[C@@]4(C)[C@]3(C)CC[C@H]2C1(C)C", "SUBJECT_OF_TEST": "CCRF-CEM", "Activity (%)": 86.5}
{"SMILES_TEXT": "CC(=O)O[C@H]1CC[C@]2(C)[C@H]3CC[C@@H]4[C@H]5[C@H](c6cc7c(c(-c8ccccc8)c6)C(=O)N(c6nccs6)C7=O)CC[C@]5(C(=O)O)CC[C@@]4(C)[C@]3(C)CC[C@H]2C1(C)C", "SUBJECT_OF_TEST": "CCRF-CEM", "Activity (%)": 90.8}

# input Could you please provide reported Activity for CC1(C)[C@@H](O)CC[C@]2(C)[C@H]3CC[C@@H]4[C@H]5[C@H](c6cc7c(c(-c8ccccc8)c6)C(=O)N(c6ccccc6)C7=O)CC[C@]5(C(=O)O)CC[C@@]4(C)[C@]3(C)CC[C@@H]12 ? Thanks!
# output 90.4
